Reported IC50 by item:
# Tested on: M. tuberculosis H37Rv growth inhibition with meropenem
# Assay Remarks: dose response, H37Rv, with and without meropenem (AID 434987);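 note: growth over 7 days at 37 °C before Alamar Blue read on day 9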
# Test Context: M. tuberculosis H37Rv growth inhibition; measured here: IC50 without meropenem
Please reply with the bare figure in µM and do not write the unit itself.

# annotated cases, reported IC50 shown
Molecule	Tested System	Value Observed
Cn1cccc1/C=C1/C(=O)NC(=O)N(Cc2ccc(F)cc2)C1=O	M. tuberculosis H37Rv growth inhibition with meropenem	46.2
COc1ccc(C2(CNC(=O)c3cc([N+](=O)[O-])cc([N+](=O)[O-])c3)CCCC2)cc1OC	M. tuberculosis H37Rv growth inhibition with meropenem	1.86

Q) Look up and state reported IC50 for CCOc1ccc(/C=N/NC(=O)c2ccccc2O)cc1CN1CC2CC(C1)c1cccc(=O)n1C2 (centres undefined)
A) 94.9

Q) Look up and state reported IC50 for `Cc1nn(CCc2nn[nH]n2)c2nc(-c3ccc(C4CCCCC4)cc3)cc(C(F)(F)F)c12`
A) 24.9
